assay: Solubility in a solvent (qualitative); format: physicochemical; details: toluene
Property name: solubility in a solvent

- Compound: "CC(C)(C)c1ccn[nH]1.CC(C)(C)c1ccn[nH]1.CC(C)(C)c1ccn[nH]1.CC(C)(C)c1ccn[nH]1.[Cl-].[Cl-].[Pt+2] [[Pt(3-^tBupzH)4]Cl2]"
  Readout value: "soluble"
- Compound: "Cc1ccn[n]1[Pt-2]([n]1nccc1C)([n+]1[nH]ccc1C)[n+]1[nH]ccc1C.Cc1ccn[n]1[Pt-2]([n]1nccc1C)([n+]1[nH]ccc1C)[n+]1[nH]ccc1C [[{Pt(3-Mepz)2(3-MepzH)2}2]]"
  Readout value: "soluble"
- Compound: "[Cl][Pt-2]([n]1nc(-c2ccccc2)cc1-c1ccccc1)([n+]1[nH]c(-c2ccccc2)cc1-c1ccccc1)[n+]1[nH]c(-c2ccccc2)cc1-c1ccccc1 [[PtCl(dppz)(dppzH)2]]"
  Readout value: "soluble"
